assay: polyglutamine aggregate formation blockers (AID 1604); conditions: polyglutamine-induced protein aggregation inhibition assay; stronger effect = higher value; tested at 2.5 µM
Numbered stars: 1 amine (or outer) side, 2 acyl side, 3 side chain; on linkers, the order of the positions; unused ones are H or OH. Bridge positions count the residues as written; N and C are the ends. Square brackets hold non-standard residues; d marks the D form. Peptide text beside a SMILES is read from it. * marks the point of attachment. ξ: configuration not given here. ΔAla(Z-3-ureido) = NC(=O)N/C=C(\N)C(=O)O; X2 = NC1=NCCC(C(N[*:1])C(=O)[*:2])N1; ξβ3hOrn = NCCCC(N)CC(=O)*; Dap = NC[CH](N)C(=O)O
readout: inhibition of aggregation (%)
Answers are plain numbers, in %.

# compound, inhibition of aggregation / %
data = [
    ("CC(NC(=O)C(NC(=O)OCc1ccccc1)C(C)C)C(=O)NC(CC(=O)O)C(=O)OC(F)F (stereo unspecified)", 0.68),
    ("CC(=O)N[C@@H](Cc1c[nH]c2ccccc12)C(N)=O", 60.3),
    ("C=C1C(=O)O[C@@H]2C3OC3(C)CC/C=C(\\C)CC[C@@H]12 (stereo partly specified)", 93.6),
    ("O[N+]1=CC=CCC1=S.On1ccccc1=S.[Zn]", 0),
    ("CC1(C)S[C@@H]2[C@H](NC(=O)[C@H](NC(=O)N3CCNC3=O)c3ccccc3)C(=O)N2C1C(=O)O (stereo partly specified)", 54.5),
    ("CCC(=O)O[C@@H](O[P@](=O)(CCCCc1ccccc1)CC(=O)N1C[C@H](C2CCCCC2)C[C@H]1C(=O)O)C(C)C", 47.1),
]

For each listed entry, give its inhibition of aggregation.
1. CC(=O)C1CCC2C3CC=C4CC(OS(=O)(=O)O)CC[C@]4(C)C3CC[C@]12C (stereo partly specified)
2. NCCCC(N)CC(=O)NCC1NC(=O)C(CO)NC(=O)C(N)CNC(=O)C(C2CCN=C(N)N2)NC(=O)/C(=C/NC(N)=O)NC1=O (stereo not drawn) (H-[Dap]S[Dap](ξβ3hOrn)[ΔAla(Z-3-ureido)][X2]; lactam 1-C; configuration not given here)
3. C1CCN2C[C@@H]3CC(CN4CCCC[C@@H]34)[C@H]2C1
4. CCC[C@@H]1C[C@@H](C(=O)NC(C(C)Cl)C2O[C@H](SC)[C@H](O)[C@@H](O)[C@H]2O)N(C)C1 (stereo partly specified)
5. CC(C)CC1NC(=O)CNC1=O (stereo unspecified)

37.2
-24.2
72.7
60.6
-30.2

Reference for the values: PubChem BioAssay
